# tested on: Mm_Fpr1 (Mus musculus, UniProt P33766)
# Construct: expressed in transfected cells
# Sequence (P33766 whole entry): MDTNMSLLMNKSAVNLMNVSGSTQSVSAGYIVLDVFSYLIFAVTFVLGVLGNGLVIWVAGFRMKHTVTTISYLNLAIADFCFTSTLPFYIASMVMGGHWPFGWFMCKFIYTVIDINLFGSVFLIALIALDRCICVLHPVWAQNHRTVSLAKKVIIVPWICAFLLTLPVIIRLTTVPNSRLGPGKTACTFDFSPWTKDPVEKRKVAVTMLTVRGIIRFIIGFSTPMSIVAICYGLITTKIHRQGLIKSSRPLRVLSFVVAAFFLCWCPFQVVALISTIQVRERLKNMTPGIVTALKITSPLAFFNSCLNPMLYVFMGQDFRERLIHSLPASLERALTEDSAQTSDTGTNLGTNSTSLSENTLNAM
# experiment summary: Internalization of FLAG-tagged receptors by flow cytometry
# Assay type: cell-based
# reported conditions: Mm_Fpr1, 30 min, relative to 1 μM WKYMVm
endpoint: agonist-induced internalization (words)

1. CC(C)c1c(NC(=O)Nc2ccc(Cl)cc2)c(=O)n(-c2ccccc2)n1C :: partial agonists
2. CCCCOc1ccc(C(=O)NN2C(=O)c3ccccc3NC2c2ccc(OC)cc2)cc1 (centres unmarked) :: partial agonists

---

# tested on: Mm_Fpr1 (Mus musculus, UniProt P33766)
Where a SMILES comes first, the peptide text is derived from it. The star is where a group is joined. For = O=C*
Reported IC50 values for a set of molecules
endpoint: IC50 (µM)

1. CSCC[C@H](NC=O)C(=O)N[C@@H](CC(C)C)C(=O)N[C@@H](Cc1ccccc1)C(=O)N[C@@H](CCCCN)C(=O)O [fMLFK, fMet-Leu-Phe-Lys] (For-MLFK-OH) :: 8.26
2. COc1cc(F)c([C@@H]2CNC(=O)[C@H]2NC(=O)Nc2ccccc2)c(F)c1 :: 1.12
3. CSCC[C@H](NC=O)C(=O)N[C@@H](CC(C)C)C(=O)N[C@@H](Cc1ccccc1)C(=O)O :: 3.18
